Values compiled from the nanobody polyreactivity screen of Harvey et al. (2022).

# experiment-summary: yeast display, Sf9 membrane polyspecificity reagent, FACS + sequencing; frameworks hold sequencing errors
observation-type: polyreactivity (PSR sort gate)

Below: 4 sequences and their reported polyreactivity (PSR sort gate).
[
  {
    "sequence-entry": "QVQLVESGGGLVQAGGRLRLSCAASGSIFDIYAMGLYRQAPGKERELVASIRRRGGSTYYADSVKGRFTISRDNAKNTVYLQMNSLKPEDTAVYYCNARRVWLRTTGTNWPERGYWGQGTQVTVSS",
    "polyreactivity (PSR sort gate)": "high polyreactivity"
  },
  {
    "sequence-entry": "QVQLVESGGGLVQAGGSLRLSCAASGRIIRYYAMGWYRQAPGKEREFVATISSGGSTNYADSVKGRFTISRDNAKNTVYLQMNSLKPEDTAVYYCNRVYRRHVWGQGTQVTVSS",
    "polyreactivity (PSR sort gate)": "high polyreactivity"
  },
  {
    "sequence-entry": "QVQLVESGGGLVQAGGSLRLTCAASVSIFPHYTMGWYRPAPGKERELVDAISNYGSSTYYADSVKGRFTISRDNAKNTVYLQMNSLKPEDSEVYYCNADDYGYSPGVNYWGQGTQVTVSS",
    "polyreactivity (PSR sort gate)": "low polyreactivity"
  },
  {
    "sequence-entry": "QDQLEESGGGLVQAGGSLRLSFAASGSTFYGYARGWYRPAPGKERELVAAISVNGGSTYYADSVKGRFTISRDNAKNTVYLQMNSLKPDETAVYYCAAGSGWRFDYWGQGTQVTVSS",
    "polyreactivity (PSR sort gate)": "low polyreactivity"
  }
]

Now let's try a different one.
Task: Item "QVQLVESGGGLVQAGGSLRLSCAASGRTFYGNGMGWYRQAPGKDRELVAAISWSGGSTYYADSVKGRFTISRDNAKNTVYLQMNSLKPEDTAVYYCAAAYRSFIIGRWYDYWGQGTQVTVSS" has what recorded polyreactivity (PSR sort gate)?
Result: low polyreactivity

###

# experiment-summary: yeast display, Sf9 membrane polyspecificity reagent, FACS + sequencing; frameworks hold sequencing errors
observation-type: polyreactivity (PSR sort gate)

Below: 5 sequences and their reported polyreactivity (PSR sort gate).
[
  {
    "sequence-entry": "QVQLVESGGGLVQAGGSLRLSCAASGRIFGNNVMGWYRQAPGKERELVASINYSGRTYYADSVKGRFTISRDNAKNTVYLQMNSLKPEDTAVYYCAARRYAWFYPYVTYDYWGQGTQVNVSS",
    "polyreactivity (PSR sort gate)": "high polyreactivity"
  },
  {
    "sequence-entry": "QVQLVESGGGLVQAGGRLRLSCAASGRTFVPYAMGWYRQPPGKERELVAAISYSGDSTYYADSEKGRFTISRDNAKNTVYLQMNSLKPEDTAVYYCAARGGNPFYYWGQGTQVTVSS",
    "polyreactivity (PSR sort gate)": "low polyreactivity"
  },
  {
    "sequence-entry": "QVQLVESGGGLVQAGGSLRLSCAASGRIFYGNAMGWYRQAPGKERELVAAISSGGGSTYYADSVKGRFTISRDNAKNTVYLQMNSLKPEDTAVYYCAADPVHRFPGTGGYWGQGTQVTVSS",
    "polyreactivity (PSR sort gate)": "low polyreactivity"
  },
  {
    "sequence-entry": "QVQHVESGGGLVQPGGSHRLSCAASGSTFQIYAMRWYRQAPGKVRELVAAITSSSSTNYADSVKGRFTISRDNAKNTDYLQMNSLKPEDPAVYYCAADVSRRCNWYDYWGQGTQVTVSS",
    "polyreactivity (PSR sort gate)": "low polyreactivity"
  },
  {
    "sequence-entry": "QVQLVESGGGLVQAGGSLRLSCAASGGTFWYYAMGWDRQAPGKERELVAAINWSGDSTYADSVKGRFTISRDNAKNTVYLQMNSLKPEDTAVYYCNADVWYYRMDYWGQGTQVTVSS",
    "polyreactivity (PSR sort gate)": "low polyreactivity"
  }
]

Task: Item "QVQLVESGGGLVQAGGSLRLSCAASGSMFVTNALGWYRQAPGTERELVAAMSVSGGSTYYADSVKGRFTISRDNAKNTVDLQMNSLKPEDTAVYYCNTVRSPPGHDYWGQGTQVTVSS" has what recorded polyreactivity (PSR sort gate)?
Result: low polyreactivity

Task: Item "QVQLVESGGGLVQAGGSLRLSCAASGSTFGPNAMGWYRQAPGKERELVAAINTRGGSTYYADSVKGRFTISRDNAKNTVYLQMNSLKPEDTAVYYCAAEYVVWYLDRFNYWGQGTQVTVSS" has what recorded polyreactivity (PSR sort gate)?
Result: high polyreactivity

Task: Item "QVQLVESGGGLVQAGGSLRLSCAASGSIIYYAMGWYRQAPGKEREFVAAITKSGGSTYYADSVKGRFTFSRDNAKNTVYLQMNSLKPEDTAVYYCAARGTWAGFYYWGQGTQVTLSS" has what recorded polyreactivity (PSR sort gate)?
Result: high polyreactivity

Task: Item "QVQLVESGGGLVQAGGSLRLSCAASGRTFSYYARGWYRQAPGKEREFVAAISSSGGSTNYADSVKGRFTISRDNAKNTVYLQMNSLKPEDTAVYYCNAGSGYTGVYLWYYWRYDYWGQGTQVTVSS" has what recorded polyreactivity (PSR sort gate)?
Result: low polyreactivity

###

# experiment-summary: yeast display, Sf9 membrane polyspecificity reagent, FACS + sequencing; frameworks hold sequencing errors

[
  {
    "sequence-entry": "QVQLVESAGGLVQAGGSLRLSCAASGSTFAYNVMGWYRQAPGKERELVASISSSSGSTYYADSVKGRFTISRDNAKNTVYLQMNSLKPEDTAVYYCATYPAYTEYDYWGQGTQVTVSS",
    "polyreactivity (PSR sort gate)": "high polyreactivity"
  },
  {
    "sequence-entry": "QVQLQESGGGLVQAGGSLRQSCAASGSIFKVVDMGLYRQAPAKEREFVATIGEGGNTYYADSVKGRFTISRDNAKNTVYLQMNSLKPEDTAVYFYAVVLGSSYSYTYWGQGTQVTVSS",
    "polyreactivity (PSR sort gate)": "low polyreactivity"
  },
  {
    "sequence-entry": "QVQLVESGGGLVQAGGSLRLSCAASGNTFRFYTMGWYRQAPGKERELVAAINSSGRTNYADSVKGRFTISRDNAKNTVYLQMNSLKPEDTAVYYCAATVWVYRRSRDYWGQGTQVTVSS",
    "polyreactivity (PSR sort gate)": "low polyreactivity"
  },
  {
    "sequence-entry": "LVQVVESGGGLVQAGGSLRLSCAASGIFSRYARGWYRQAPGKERELVAAISNGGRTYYADSVKGRFTSARDNAKNTVYLQMNSLNPEDTAVYYCNKVRSPWYESWGQGTQVTVSS",
    "polyreactivity (PSR sort gate)": "high polyreactivity"
  }
]

###

# experiment-summary: yeast display, Sf9 membrane polyspecificity reagent, FACS + sequencing; frameworks hold sequencing errors
observation-type: polyreactivity (PSR sort gate)

[
  {
    "sequence-entry": "QVQLVESGGGLVQAGCSLRLSCAASGSIFDVNAMGWYRQAPGKERELVAAISQRGNRTYYADSVKGRFTISRDNAKNTVYLQMNSLKPEDTAVYYCNRGGWRQYDSWGQGTQVTVSS",
    "observation-type": "polyreactivity (PSR sort gate)",
    "result": "high polyreactivity"
  },
  {
    "sequence-entry": "QVQLVESGGGLVQAGGSLRLSCAASGQIFSRYAMGWSRQAPGNERELVAAITWSGGRTYYADSVKGRFTISRDNAKYTVYLQMNSLKAEDTAVYYCAATRYPLPEYYWGQGTQGTVSS",
    "observation-type": "polyreactivity (PSR sort gate)",
    "result": "high polyreactivity"
  }
]

###

# experiment-summary: yeast display, Sf9 membrane polyspecificity reagent, FACS + sequencing; frameworks hold sequencing errors

[
  {
    "sequence-entry": "QVQLVESGGGLVQAGGSLRLSCAASGRTFAAYAMGWYRQAPGKERELVAAIRRGGTTNYADSVKGRFTISRDNAKNTVYLQMNSLKPEDTAVYYCAALAPYSRSWVTYDYWGQGSQVTVSS",
    "polyreactivity (PSR sort gate)": "low polyreactivity"
  },
  {
    "sequence-entry": "QVQLVESGGGLVQAGGSLRLSCAASGFIFASNAMGWYTQAPGKERELVASITIGDSTYYADSVKGRFTISRDNAKNTVYLQMNSLKPEDTAVYYCAAVKTVDVGYDYWGQGTQVTVSS",
    "polyreactivity (PSR sort gate)": "low polyreactivity"
  },
  {
    "sequence-entry": "QVQLVESGGGLVQAGGSLGLSCAASGSTFRSYAMGWYRQAPGKERELVAAISSAGTTYYADSVKGRFTISRDNAKNTVYLQMNSLKPEDTAVYYCAAKYSYYTYAGDGGLFSWSYGYWGQGTQVTVSS",
    "polyreactivity (PSR sort gate)": "low polyreactivity"
  }
]

###

# experiment-summary: yeast display, Sf9 membrane polyspecificity reagent, FACS + sequencing; frameworks hold sequencing errors
observation-type: polyreactivity (PSR sort gate)

Below: 10 sequences and their reported polyreactivity (PSR sort gate).
[
  {
    "sequence-entry": "QVQLVESGGDLVQAGGSLRLSCAASGGIFQKYVMGWYRQAPGKERELVARITSVGSTYYADSVKGRFTISRDNAKNTVYLQMNSLKPVDTAVYYCNAELYRRSQGYRFTAFDYWGQGTQVTVSS",
    "polyreactivity (PSR sort gate)": "low polyreactivity"
  },
  {
    "sequence-entry": "QGQLVESGGGLVQAGGSLRLSCAASGSIFGNAMGWYIQAPGKEREFVAAISSSGSSTYYADSVKGRFTISRDNAKNTVYLQMNSLKPEDTAVYYCAARPPRVSYEYWGQGTQVTVSS",
    "polyreactivity (PSR sort gate)": "high polyreactivity"
  },
  {
    "sequence-entry": "QVQLVESGGGLVQAGGSLRISCAASGSIFVLYAMGWYRQAPGKERELVATITWSGDSTYYADSVKGRFTISRDNAKNTVYLQMNSLKPEDTAVYYCNKRIWDQYDWGQGTQVTVSS",
    "polyreactivity (PSR sort gate)": "low polyreactivity"
  },
  {
    "sequence-entry": "QVQLVESGGALVQAGGSLRLSCAASGRTFWDYAMGWYREAPGKERELVAAITWGGGSTYYADSVKGRFTISRDNAKNTVYLQMNSLKPVDTAVYYCAAGRGRHTYNYWGQGTQVTVTS",
    "polyreactivity (PSR sort gate)": "low polyreactivity"
  },
  {
    "sequence-entry": "QVQLVESGGGLVQAGGSLRLSCAASGIILGLNVMGWYRQAPGKERELVATITRRGGSTFYADSVKGRFTISRDNAKNTVYLQMNSLKPEDTAVYYCNAEQWIWHHLTVQGFDYWGQGTQVTVSS",
    "polyreactivity (PSR sort gate)": "high polyreactivity"
  },
  {
    "sequence-entry": "QVQLVESGGGLVQEGGSLRLSCAASGSTFDSNAMGWYRQAPGTERELVAAIDWSGGSTYYADSVKGRFTISRDNAKNSVYLQMNSLKPEDTAVYYCAADDYSSNYGDFDYWGQGTQVTVSS",
    "polyreactivity (PSR sort gate)": "low polyreactivity"
  },
  {
    "sequence-entry": "QVQLVESGGGLVQAGGSLRLSCAASGRIFAVYAMGWYRQAPGKEREFVAAISYSGGITYYADSVKGRFTISRDNAKNTVYLQMNSLIPEDTAVYYCNAYYYFWGQGTQVTVSS",
    "polyreactivity (PSR sort gate)": "low polyreactivity"
  },
  {
    "sequence-entry": "QVQLVESGGGLVQAGGSLRLSCAASGSNFHPNAMGSCRQAPGKERELVAAITKSGGSTYYADSVKGRFTISRDNAKNTVYLQMNSRKPEDTAVYYCNALRYRRVGTLGYDYWGQATQVTVSS",
    "polyreactivity (PSR sort gate)": "high polyreactivity"
  },
  {
    "sequence-entry": "QVQLVESGGGLVQAGGSLRLSCAASGSIFFRNAMGRYRPAPGKERELVAAISKSGGSTYYADSVKGRFTISRDNAKNTVYLQMNSLKPEDTAVYYCAAERTFLYWAYDYWGQGTQVTVSS",
    "polyreactivity (PSR sort gate)": "high polyreactivity"
  },
  {
    "sequence-entry": "QVQLVESGGGLVQAGGSLRLSCAASGIIFYRYAMGWYRQAPGKERELVARITYNGGRTYYADSVKGRFTISRDNAKKTVYLQMNSLKPEDSAVYYCAARGHGGYYYWGQGTQVTVSS",
    "polyreactivity (PSR sort gate)": "high polyreactivity"
  }
]

Now let's try a different one.
Task: Item "QVQLVESGGGLVQAGGSLRLSCAASGSTFVSNAMGWYRQAPGKERELVAAISTSGGSTYYADSVKGRFTISRDNAKKTVYLQMNSLKTEDTAVYFCAAVSPRRYRYDYWGQGTQVTVSS" has what recorded polyreactivity (PSR sort gate)?
Result: low polyreactivity
